Data credit: patent US6001988

- target-of-assay: T1, L-selectin (LS-Rg) (Homo sapiens, UniProt P14151 P14151:39-332)
- T1 chain: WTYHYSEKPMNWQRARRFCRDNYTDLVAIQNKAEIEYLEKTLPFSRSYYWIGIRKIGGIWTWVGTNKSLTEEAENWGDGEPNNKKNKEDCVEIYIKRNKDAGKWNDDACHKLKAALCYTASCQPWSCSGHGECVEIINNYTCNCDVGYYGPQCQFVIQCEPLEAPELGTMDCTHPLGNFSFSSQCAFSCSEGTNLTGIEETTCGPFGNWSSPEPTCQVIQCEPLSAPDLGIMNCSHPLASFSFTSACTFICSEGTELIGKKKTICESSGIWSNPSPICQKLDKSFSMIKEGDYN
- procedure-text: filter; 4 C, HSMC; 5.5 nM at room temp
- study-conditions: tags: human IgG2 Fc fusion (provided by A. Varki); label: 32P
- Method: As described in SELEX Patent Applications, the nitrocellulose filter partitioning method was used to determine the affinity of RNA ligands for LS-Rg and for other proteins. […] The filters were air-dried and counted in a Beckman LS6500 liquid scintillation counter without fluor. The dissociation constants for representative ligands from rounds 13 and 14, including all orphans, were determined by nitrocellulose filter binding experiments and are listed in Table IX. […]
endpoint-label: pKd
Please express pKd as -log10 of the molar concentration.

Tell me measured pKd for F13.42 (ssRNA, 2'-NH2 all C and U) RNA: GGGAGGACGAUGCGGGAUGUAAAUGACAAAUGAACCUCGAAAGAUUGCACACUCCAGACGACUCGCCCGA please. 8.70
